Experimental system: Translocator protein (Rattus norvegicus, UniProt P16257)
Sequence (P16257 whole entry, looked up): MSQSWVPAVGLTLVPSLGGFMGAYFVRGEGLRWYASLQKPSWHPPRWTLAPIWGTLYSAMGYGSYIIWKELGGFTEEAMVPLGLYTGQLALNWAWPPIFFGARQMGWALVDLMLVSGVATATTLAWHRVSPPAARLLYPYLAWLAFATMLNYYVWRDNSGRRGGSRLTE
pIC50: −log10 of the molar value.
// values below are reported pIC50
Measurement label: pIC50

smiles_text=CN(C)C(=O)OC1=C(c2ccccc2)Oc2c(Cl)cccc2-n2cccc21 measurement_label=pIC50 inequality_symbol== value_measured=8.89
smiles_text=COC(=O)C1=C(c2ccccc2)Oc2ccccc2-n2cccc21 measurement_label=pIC50 inequality_symbol== value_measured=6.83
smiles_text=CCN(CC)C(=O)OC1=C(c2ccc(C)cc2)Oc2ccccc2-n2cccc21 measurement_label=pIC50 inequality_symbol== value_measured=9.03
smiles_text=CN(C)C(=O)OC1=C(c2ccc(N=[N+]=[N-])cc2)Oc2ccccc2-n2cccc21 measurement_label=pIC50 inequality_symbol== value_measured=8.44
smiles_text=CCC1=C(OC(C)=O)c2cccn2-c2ccccc2O1 measurement_label=pIC50 inequality_symbol=< value_measured=5.30
smiles_text=CC(=O)OCC1=C(c2ccccc2)Oc2ccccc2-n2cccc21 measurement_label=pIC50 inequality_symbol== value_measured=5.71
smiles_text=CC(=O)C1=C(c2ccccc2)Oc2ccccc2-n2cccc21 measurement_label=pIC50 inequality_symbol== value_measured=7.19
smiles_text=CCN(CC)C(=S)OC1=C(c2ccccc2)Oc2ccccc2-n2cccc21 measurement_label=pIC50 inequality_symbol== value_measured=8.42
smiles_text=CCC1=C(OC(=O)N(C)C)c2cccn2-c2ccccc2O1 measurement_label=pIC50 inequality_symbol== value_measured=6.23
smiles_text=CC(=O)OC1=C(c2ccc3ccccc3c2)Oc2ccccc2-n2cccc21 measurement_label=pIC50 inequality_symbol== value_measured=7.12
smiles_text=O=C(OC1=C(c2ccccc2)Oc2ccccc2-n2cccc21)C1CCCCC1 measurement_label=pIC50 inequality_symbol== value_measured=7.09

###

Experimental system: UniProt:P16257
Measurement protocol: Displacement of [3H]-Ro- 5-4864 from rat adrenal peripheral-type benzodiazepine receptor (PBR)
// values below are reported Ki
Measurement label: Ki (nM)

smiles_text=CCN(CC)C(=O)OC1=C(c2ccc(C)cc2)Oc2ccccc2-n2cccc21 measurement_label=Ki value_measured=1.9
smiles_text=CN(C)C(=O)OC1=C(c2ccccc2)Sc2c(Cl)cccc2-n2cccc21 measurement_label=Ki value_measured=2.6
smiles_text=CC(=O)OC1=C(c2ccc(C)cc2)Oc2ccccc2-n2cccc21 measurement_label=Ki value_measured=1.7
smiles_text=CN(C)C(=O)OC1=C(c2ccc(N=[N+]=[N-])cc2)Oc2ccccc2-n2cccc21 measurement_label=Ki value_measured=3.6

Ref: ChEMBL document CHEMBL1129620
